- Tested on: NCI-H522 lung
- ASSAY_REMARKS: NCI-60 one-dose screen, 48 h (100 = growth as untreated, 0 = no growth, -100 = all killed)
- MEASUREMENT_CONTEXT: 10 µM unless noted
The panel holds about 83,000 compounds, 20% with a hit somewhere; the sample as a whole holds those more often.

# MOLECULE, MEASURED_TARGET, growth [%]
records = [
    ("O=S(=O)(NCCNc1nccc(-c2c(-c3ccc(F)c(O)c3)nc3occn23)n1)c1ccccc1", "NCI-H522 lung", 55.2),
    ("Cc1nn(-c2ccccc2)c(N2CCOCC2)c1/C=N/N=c1\\sc2ccccc2n1C", "NCI-H522 lung", 81.5),
    ("CC(C)CN(C(=O)c1ccc(Cl)cc1)c1c(N)n(CC(C)C)c(=O)[nH]c1=O", "NCI-H522 lung", 98.8),
    ("CC(C)(C#N)N1CCN(c2ccccc2Cl)CC1", "NCI-H522 lung", 90.9),
    ("COc1ccc(C(=O)c2cc3c(N)c(C(=O)Nc4cccc(Cl)c4)sc3nc2C)cc1", "NCI-H522 lung", -4.67),
    ("NC(=O)c1cccc(-n2ccc3cc(NC(=O)Nc4cc(C(F)(F)F)cc(C(F)(F)F)c4)ccc32)n1", "NCI-H522 lung", 59.1),
    ("NC(=O)CN1CCN(c2ccccc2Cl)CC1", "NCI-H522 lung", 92.3),
    ("CN1CCN(c2cnc(C(=O)Nc3cc(F)cc4cccnc34)cn2)CC1", "NCI-H522 lung", 22),
    ("CS(=O)(=O)OCCN(CCOS(C)(=O)=O)c1ccc(/C=N/Nc2ccc([N+](=O)[O-])cc2[N+](=O)[O-])cc1", "NCI-H522 lung", 91.5),
    ("COc1cc(C(=O)c2cnc(-c3ccc4cc[nH]c4c3)[nH]2)cc(OC)c1OC", "NCI-H522 lung", -17.4),
    ("COc1cc(C2CC(c3cccc(Nc4ccncc4)c3)=NN2c2ccc(Cl)cc2)cc(OC)c1OC (centres undefined)", "NCI-H522 lung", -46.1),
    ("COc1cc(OC)c(/C=C/C(=O)c2ccc(Nc3ncnc4ccccc34)cc2)c(OC)c1", "NCI-H522 lung", -51.4),
    ("O=C1Nc2c(ccc(Cl)c2Cl)/C1=C/c1ccc(F)cc1", "NCI-H522 lung", 76.4),
    ("O=C(Nc1ccc2ncnc(Nc3ccc(Oc4cccc(F)c4)c(Cl)c3)c2c1)c1ccc(CNCCO)cc1", "NCI-H522 lung", 26.9),
    ("CO[C@@H]1[C@H](N(C)C(=O)c2ccccc2)C[C@@H]2O[C@]1(C)n1c3ccccc3c3c4c(c5c6ccccc6n2c5c31)C(=O)NC4=O", "NCI-H522 lung", 21.2),
    ("N#Cc1cc(-c2nc3ccccc3s2)c(=O)n(NS(=O)(=O)c2ccc(Cl)cc2)c1N", "NCI-H522 lung", 96.3),
    ("C=C(C)[C@@H]1CC[C@]2(C=O)CC[C@]3(C)[C@H](CC[C@@H]4[C@@]5(C)CCCNC(C)(C)[C@@H]5CC[C@]43C)[C@@H]12", "NCI-H522 lung", 84.1),
    ("Cc1ccc2[nH]c(=O)cc(-n3nncc3COc3ccc(C=O)cc3)c2c1", "NCI-H522 lung", 89.7),
    ("COc1ccc(-c2nn(Cc3ccccc3)c3c2-c2oncc2CC3)cc1OC", "NCI-H522 lung", 98.9),
]

###

- System: NCI-H522 lung
- ASSAY_REMARKS: NCI-60 one-dose screen, 48 h
- MEASUREMENT_CONTEXT: 10 µM unless noted
Compounds without any hit were thinned out: in the full panel of roughly 83,000, 20% have a hit. Active and inactive are the calls of the source. How the source made its calls: active means growth percent below 10; inactive means the rest.
Possible outcomes: yes for active, no for inactive

# MOLECULE, CATEGORY_LABEL
records = [
    ("O=C(Nc1ccc(F)cc1)c1c(NC(=O)C(F)(F)F)sc2c1CCCCC2", "yes"),
    ("COc1cc(NCC(C)(O)CN(CC(C)C)CC(C)C)c2nc(C)ccc2c1 (stereo unspecified)", "no"),
    ("CC(N)C(=O)NNc1n[nH]c(=S)n1N (stereo unspecified)", "no"),
    ("COc1ccc(Cc2nc3cc(OC)c(OC)cc3c(=O)[nH]2)cc1", "no"),
    ("O=S(=O)(NCCCNc1nccc(-c2c(-c3cccc(O)c3)nc3occn23)n1)c1ccc(F)cc1", "no"),
    ("NC(=O)c1cccc(-c2ccccc2N2CCCCC2)c1", "no"),
    ("O=C1CCC(NC(=S)Nc2ccccc2)N1 (stereo unspecified)", "no"),
    ("Cc1cc(C)c(C=O)c(C)c1", "no"),
    ("O=C(Nc1ccc2cc3ccc(NC(=O)NC4CCCCC4)cc3nc2c1)NC1CCCCC1", "no"),
    ("COc1ccc(C(=O)c2cc(C)c(OC)c(C)c2)c(OC)c1O", "yes"),
    ("NC(=O)c1ccc[n+](CC(=O)N2CCN(c3cc4c(cc3F)c(=O)c(C(=O)O)cn4C3CC3)CC2)c1", "yes"),
]

###

Overview of reported growth across a group of molecules:
- Test system: EKVX NSCLC
- ASSAY_REMARKS: NCI-60 one-dose screen, 48 h (100 = growth as untreated, 0 = no growth, -100 = all killed)
- MEASUREMENT_CONTEXT: 10 µM unless noted
This is part of a sample that, as a whole, favours compounds with a hit. Of some 83,000 tested, about 20% had one in any assay.

# MOLECULE, MEASURED_TARGET, UNIT_TEXT, growth
measured = [
    ("Cc1ccc(C2CC(c3cccc(Nc4ccncc4)c3)=NN2c2ccccc2)cc1 (stereo unspecified)", "EKVX NSCLC", "%", -51.9),
    ("COc1ccc2nc(N=Nc3c(O)ccc4ccccc34)sc2c1", "EKVX NSCLC", "%", 17.8),
    ("COc1ccc(C(=O)c2cc3c(N)c(C(=O)Nc4cccc(Cl)c4)sc3nc2C)cc1", "EKVX NSCLC", "%", 39.4),
    ("CCN(CC)CCCC(Nc1c2ccc(Cl)cc2nc2ccc(OC)cc12)c1ccc(Cl)cc1 (stereo unspecified)", "EKVX NSCLC", "%", 53.1),
    ("O=C(Nc1ccccc1)Oc1ccccc1-c1ccccc1", "EKVX NSCLC", "%", 96.5),
    ("CCCCCOc1ccc(/C=N/Nc2cc(C)nc3ccc(Br)cc23)cc1", "EKVX NSCLC", "%", 76.3),
    ("Cc1ccccc1C(c1ccccc1)c1ccccc1C", "EKVX NSCLC", "%", 96.3),
    ("COc1cc(-c2nc3sccn3c2-c2ccnc(NCCNS(=O)(=O)c3ccc(F)cc3)n2)ccc1F", "EKVX NSCLC", "%", 23.6),
    ("Nc1ncc(C#Cc2cncc(NC(=O)c3cccc(C(F)(F)F)c3)c2)c2cccnc12", "EKVX NSCLC", "%", 81.6),
    ("CCCCCCCCCCN=C(N)N=C(N)N", "EKVX NSCLC", "%", 38.8),
    ("O=C(Nc1nc(-c2ccc(Br)cc2)cs1)c1cc(-c2ccc(Br)cc2)nc2ccc(Cl)cc12", "EKVX NSCLC", "%", 77.8),
]

###

- Tested on: NCI-H23 lung
- ASSAY_REMARKS: NCI-60 one-dose screen, 48 h
- MEASUREMENT_CONTEXT: 10 µM unless noted
Compounds without any hit were thinned out: in the full panel of roughly 83,000, 20% have a hit. The source made the active and inactive calls. The calls were made as follows: active = growth percent below 10; inactive = the rest.
Outcomes: 1 for active, -1 for inactive

# COMPOUND, CATEGORY_LABEL
rows = [
    ("Clc1ccc(C2CC(c3cccc(Nc4ccncc4)c3)=NN2c2ccc(Cl)cc2)cc1 (stereo unspecified)", -1),
    ("c1ccc(N2N=C(c3cccc(Nc4ccncc4)c3)CC2c2ccc3c(c2)OCO3)cc1 (stereo unspecified)", -1),
    ("COc1cc2c(cc1[N+](=O)[O-])-c1ccc([N+](=O)[O-])cc1/C2=N/NC(N)=S", -1),
    ("S=c1[nH]cccc1-c1nnc2n1Nc1nc3ccc(Cl)cc3cc1CS2", -1),
    ("CC(C)(C)OC(=O)N1C/C(=C\\c2ccoc2)C(=O)/C(=C/c2ccoc2)C1", -1),
    ("O=C(Nc1ccc2ncnc(Nc3ccc(Oc4cccc(F)c4)c(Cl)c3)c2c1)c1ccc(CN2CCOCC2)cc1", -1),
    ("CCCCCCCCCCN=C(N)N=C(N)N", -1),
    ("Cc1cccc(C)c1-c1cc(Cc2ccc(Cl)cc2)c(=O)[nH]n1", -1),
    ("O=C(N/N=C/c1ccncc1)c1ccccc1Nc1cccc(C(F)(F)F)c1", -1),
    ("CCC(C)N(CCNc1cc(OC)cc2cccnc12)CCC(C)C (stereo unspecified)", -1),
    ("COc1cc(C2CC(c3cccc(Nc4ccncc4)c3)=NN2c2cc(Cl)cc(Cl)c2)cc(OC)c1OC (stereo unspecified)", -1),
    ("COc1ccc(Nc2nc(N)nc3c2CCc2occc2-3)cc1", -1),
    ("C=C1C(=O)O[C@H]2[C@H]1CC/C(CNC(=O)/C=C/c1ccccc1F)=C\\CC[C@@]1(C)O[C@@H]21", -1),
    ("Nc1nnc2cc(Cl)ccc2n1", -1),
    ("S=c1[nH]cccc1-c1nnc2n1Nc1nc3ccccc3cc1CS2", -1),
    ("O=C(Nc1ccc(Cl)cc1)Nc1ccc(Cl)c(Cl)c1", 1),
    ("O=C(CN1CCOCC1)Nc1ccc2ncnc(Nc3ccc(Oc4cccc(C(F)(F)F)c4)c(Cl)c3)c2c1", -1),
    ("NC(=S)N/N=C/c1ccc(OC(=O)COc2cc(Cl)c(Cl)cc2Cl)cn1", -1),
    ("CC(O)/C=C/C=C/C(O)CC/C=C/C(=O)NCC(C)(C)O (stereo unspecified)", -1),
    ("Cc1c([N+](=O)[O-])cc(C(C)(C)C)cc1[N+](=O)[O-]", -1),
    ("CC(=O)N1c2ccccc2NC2=C(C(=O)N(C)C2(C)C)C1C (stereo unspecified)", -1),
]
